Provenance of the data: patent US20260193326A1

Molecular target: T1, AAV5 (adeno-associated virus 5)
T1 construct: also called adeno-associated virus serotype 5
Assay: SPR, AAV amine-coupled to CM5 chip;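 note: nanobodies flowed as analyte at seven concentrations spanning 1–100 nM over immobilized AAV (500–800 RU), kinetic constants derived by fitting the binding curves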
Metric Name: koff
Be sure to follow the number with its unit.

Input: May I ask what koff has been recorded for A4-089 (VHH) VHH: VQLQESGGGLVQPGGSLRLSCAASGSNFSINTMGWYRQAPGKQRELVATFTRAGNTNYADSVKGRFTISRDNGKNTVYLQMNSLRPEDTAVYYCHVDEVRDSSWTTSNLWGQGTQVTVSS ?
Output: 0.00099 s⁻¹

Input: Record: A4-069 (VHH) VHH: VQLQESGGGLVQPGGSLRLSCAASGSIFTINSMGWYRQAPGKWRELVATVTRGGNTNYANSVKGRFTISRDNAKNTVYLQMNTLRPEDTAVYYCHLDEVRDSSWTTSNLWGQGTQVTVSS
Output: 0.0002 s⁻¹

Input: Record: A4-058 (VHH) VHH: VQLQESGGGLVQPGGSLRLSCAASGSIFSINTMGWYRQAPAKQREIVATVTRDGSTNYAESVKGRFTISRDNAKNTVYLQMNSLRPEDTAVYYCHLDEVRQSTWTTSNLWGQGTQVTVSS
Output: 0.00129 s⁻¹

Input: Record: A4-082 (VHH) VHH: VQLQESGGGLVQPGGSLRLSCAASGSRFSLNTMGWYRQAPGKQRELVATVTRGGSTKYADFVKGRFTISRDNAKNTVYLQMNSLRPEDTAVYYCHVDELRESGWTTSNLWGQGTQVTVSS
Output: 0.0005 s⁻¹
